# maps each entry to its Ki
# studySystem: T1, Human EphA2 (Ecto), C-terminal polyHis (Human, UniProt P29317 24-537)
# T1 construct: extracellular domain; also called EPH receptor A2; ephrin type-A receptor 2
# T1 sequence (P29317 24-537): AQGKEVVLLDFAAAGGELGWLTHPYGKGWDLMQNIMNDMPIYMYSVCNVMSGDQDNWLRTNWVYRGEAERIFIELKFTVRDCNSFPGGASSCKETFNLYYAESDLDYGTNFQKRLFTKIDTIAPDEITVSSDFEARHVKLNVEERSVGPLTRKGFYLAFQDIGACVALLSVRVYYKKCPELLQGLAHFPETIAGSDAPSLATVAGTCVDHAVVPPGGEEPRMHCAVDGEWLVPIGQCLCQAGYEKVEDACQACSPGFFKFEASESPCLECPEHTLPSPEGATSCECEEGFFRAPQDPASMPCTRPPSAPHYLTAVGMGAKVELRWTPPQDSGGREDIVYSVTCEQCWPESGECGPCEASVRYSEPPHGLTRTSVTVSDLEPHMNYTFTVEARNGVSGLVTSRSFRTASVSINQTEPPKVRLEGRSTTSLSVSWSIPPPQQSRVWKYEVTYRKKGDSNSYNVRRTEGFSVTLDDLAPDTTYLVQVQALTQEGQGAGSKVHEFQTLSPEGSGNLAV
# protocolText: fluorescence polarisation competition; competitor fluorescent Compound 18
Starred links: 1 amine or outer side, 2 acyl side, 3 side chain; linkers in the order of their positions; H or OH if unused. Positions of bridges follow the written chain, without caps; N, C: chain ends. Non-standard residues stand in square brackets, D forms with d. Primed or numbered codes have the meaning given here. No end group written: not given here. TBMB′ = 1,3,5-tris(bromomethyl)benzene, 1,3,5-tris(methylene)benzene core, three thioethers to Cys; 1Nal = N[C@@H](Cc1cccc2ccccc12)C(=O)O; TBMB = c1c(C[*:1])cc(C[*:3])cc1C[*:2]; hArg = N=C(N)NCCCC[C@H](N)C(=O)O; hPhe = N[C@@H](CCc1ccccc1)C(=O)O; Aib = CC(C)(N)C(=O)O; Sar = CNCC(=O)O
Give just the number in nM; leave the unit off.

Answered examples (5):
# binder, resultNumber
data = [
    ("[Sar][Sar]ACPWGPFWCPVNRP[dA]C (linker 4-11-18 via TBMB) [Bicycle Compound Number 112 (TBMB scaffold)]", 89),
    ("[Sar][Sar]ACP[1Nal]GPFWCPVN[hArg]P[dA]C (linker 4-11-18 via TBMB) [Bicycle Compound Number 134 (TBMB scaffold)]", 1.2),
    ("[Sar][Sar]ACP[1Nal]GPFWCPVN[hArg]PGC (linker 4-11-18 via TBMB, also called Compound 122) [Bicycle Compound Number 122 (TBMB scaffold)]", 9.55),
    ("[Sar][Sar]ACPWGPFWCPVNRPAC (linker 4-11-18 via TBMB) [Bicycle Compound Number 111 (TBMB scaffold)]", 108),
    ("[Sar][Sar]ACPWGPFWCPV[dA]RPGC (linker 4-11-18 via TBMB) [Bicycle Compound Number 102 (TBMB scaffold)]", 317),
]

For the binder [Sar][Sar]ACPWGPFWCPVNR[Aib]GC (linker 4-11-18 via TBMB, also called Compound 110) [Bicycle Compound Number 110 (TBMB scaffold)] , give its reported Ki.
75

For the binder [Sar][Sar]ACPWGP[hPhe]WCPVNRPGC (linker 4-11-18 via TBMB′, also called Compound 87) [Bicycle Compound Number 87 (TBMB scaffold)] , give its reported Ki.
162

For the binder AEGLPCPWGPFWCPVNRPGCA (linker 6-13-20 via TBMB (inferred), also called Compound 55) [Bicycle Compound Number 55 (TBMB scaffold)] , give its reported Ki.
11.3

For the binder [Sar][Sar]ACP[1Nal]G[Aib]FWCPV[dA]RPGC (linker 4-11-18 via TBMB, also called Sar2-ACP(1Nal)G(Aib)FWCPV(D-Ala)RPGC) [Bicycle Compound Number 127 (TBMB scaffold)] , give its reported Ki.
40
